Please go through the items and note down their self-splicing fitness (ln).
ASSAY_OVERVIEW: self-splicing fitness, log relative to wild type (ln ratio); higher = more splicing; Tetrahymena group I intron in knt gene, E. coli kanamycin selection, DiMSum; sequences stand for … in CUCUCU…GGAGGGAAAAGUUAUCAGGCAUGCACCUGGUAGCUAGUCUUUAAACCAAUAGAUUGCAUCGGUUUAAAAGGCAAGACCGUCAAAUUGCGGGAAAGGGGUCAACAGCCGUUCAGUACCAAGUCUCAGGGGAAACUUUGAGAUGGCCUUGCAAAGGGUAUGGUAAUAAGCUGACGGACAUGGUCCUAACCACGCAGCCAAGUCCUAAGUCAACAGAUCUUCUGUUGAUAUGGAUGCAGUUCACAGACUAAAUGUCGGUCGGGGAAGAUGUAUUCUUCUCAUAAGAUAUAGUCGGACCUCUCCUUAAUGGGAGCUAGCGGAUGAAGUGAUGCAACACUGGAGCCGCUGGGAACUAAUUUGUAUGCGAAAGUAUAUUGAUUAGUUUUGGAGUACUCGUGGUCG;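 also: selection with 25 µg/mL kanamycin versus none on LB agar overnight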
MEASUREMENT_SETUP: 30 °C
Answers are plain numbers.

CGAAAGCAAUAUUACGUUUC; -3.81
CCUGAGCAAUAUUACGCAAU; -3.31
GAGCAGCAAUAUUACGAUUU; -0.179
CAGGAGCAAUAUUACGUGUU; -3.24
UGUCAGCAAUAUUACGUAGU; -2.85
GCCCAGCAAUAUUACGCCGA; -1.86
GAAUAGCAAUAUUACGACGA; -0.436

Now look at this entry.
Please fill in: self-splicing fitness (ln) reported for `AAUGAGCAAUAUUACGAGGG` = -4.5

###

Please go through the items and note down their self-splicing fitness (ln).
ASSAY_OVERVIEW: self-splicing fitness, log relative to wild type (ln ratio); higher = more splicing; Tetrahymena group I intron in knt gene, E. coli kanamycin selection, DiMSum; sequences stand for … in CUCUCU…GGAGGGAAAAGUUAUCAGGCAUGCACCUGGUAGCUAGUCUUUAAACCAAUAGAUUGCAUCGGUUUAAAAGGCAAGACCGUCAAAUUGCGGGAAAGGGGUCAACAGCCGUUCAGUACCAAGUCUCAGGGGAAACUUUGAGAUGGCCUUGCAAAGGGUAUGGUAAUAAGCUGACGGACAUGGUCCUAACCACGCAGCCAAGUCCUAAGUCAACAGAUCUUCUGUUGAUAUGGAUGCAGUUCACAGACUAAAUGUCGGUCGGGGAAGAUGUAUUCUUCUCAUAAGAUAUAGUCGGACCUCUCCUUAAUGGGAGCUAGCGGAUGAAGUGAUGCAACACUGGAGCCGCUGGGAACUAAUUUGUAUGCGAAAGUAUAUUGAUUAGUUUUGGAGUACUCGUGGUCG
MEASUREMENT_SETUP: 30 °C
Answers are plain numbers.

Past entries and their recorded results:
GUGCAGCAAUAUUACGAGCC; -1.65
GACUAGCAAUAUUACGCCUA; -0.114
UUAUAGCAAUAUUACGUAAA; -1.34

Working through the 3 sequences below one at a time, give self-splicing fitness (ln) for each.
1. GCCGAGCAAUAUUACGCAAC
2. UGGAAGCAAUAUUACGUAAA
3. GUAGAGCAAUAUUACGUUGG

Data returned:
1. -3.15
2. -2.28
3. -2.16

###

ASSAY_OVERVIEW: self-splicing fitness, log relative to wild type (ln ratio); higher = more splicing; Tetrahymena group I intron in knt gene, E. coli kanamycin selection, DiMSum; sequences stand for … in CUCUCU…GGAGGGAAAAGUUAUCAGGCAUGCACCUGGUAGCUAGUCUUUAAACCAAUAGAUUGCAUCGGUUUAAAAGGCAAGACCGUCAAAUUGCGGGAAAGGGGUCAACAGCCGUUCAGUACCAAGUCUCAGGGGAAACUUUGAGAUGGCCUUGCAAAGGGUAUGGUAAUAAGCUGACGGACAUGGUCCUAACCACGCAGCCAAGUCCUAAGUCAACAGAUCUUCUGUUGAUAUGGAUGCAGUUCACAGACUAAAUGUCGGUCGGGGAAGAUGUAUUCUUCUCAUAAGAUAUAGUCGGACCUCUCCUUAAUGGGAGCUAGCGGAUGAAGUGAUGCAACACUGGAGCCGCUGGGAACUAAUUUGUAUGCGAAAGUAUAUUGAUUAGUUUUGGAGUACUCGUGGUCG
MEASUREMENT_SETUP: 37 °C
MEASUREMENT_LABEL: self-splicing fitness (ln)

CAAUAGCAAUAUUACGCAAC; -1.91
CUUAAGCAAUAUUACGGCGG; -0.194
CGUCAGCAAUAUUACGCCUU; -1.94
AGAGAGCAAUAUUACGUCCG; -1.63

Please fill in: self-splicing fitness (ln) reported for `AAGUAGCAAUAUUACGGAAC` = -1.46

###

ASSAY_OVERVIEW: self-splicing fitness, log relative to wild type (ln ratio); higher = more splicing; Tetrahymena group I intron in knt gene, E. coli kanamycin selection, DiMSum; sequences stand for … in CUCUCU…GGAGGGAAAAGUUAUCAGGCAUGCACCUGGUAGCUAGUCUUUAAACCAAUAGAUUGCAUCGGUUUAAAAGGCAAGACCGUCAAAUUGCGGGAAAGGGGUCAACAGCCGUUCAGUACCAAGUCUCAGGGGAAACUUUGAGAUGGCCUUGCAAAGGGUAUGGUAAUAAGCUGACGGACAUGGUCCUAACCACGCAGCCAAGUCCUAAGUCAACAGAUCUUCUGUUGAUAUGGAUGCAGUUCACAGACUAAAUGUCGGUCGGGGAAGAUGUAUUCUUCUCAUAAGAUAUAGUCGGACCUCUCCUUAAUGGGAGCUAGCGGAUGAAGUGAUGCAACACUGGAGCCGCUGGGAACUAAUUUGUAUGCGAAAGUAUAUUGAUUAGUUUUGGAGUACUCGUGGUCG
MEASUREMENT_SETUP: 37 °C
Consider the reported self-splicing fitness (ln) of an entry and match it to a band in A (below -2), B (-2 to below -0.4), C (-0.4 or more)

Solved entries (count: 3):
UAUUAGCAAUAUUACGAUUU; B
CCUUAGCAAUAUUACGGGCU; A
CAAAAGCAAUAUUACGUCGG; C

Data request: Lab note: which band did `ACAUAGCAAUAUUACGAAUU` land in?
Data returned: B

Data request: Lab note: which band did `GUACAGCAAUAUUACGUAGU` land in?
Data returned: A

###

ASSAY_OVERVIEW: self-splicing fitness, log relative to wild type (ln ratio); higher = more splicing; Tetrahymena group I intron in knt gene, E. coli kanamycin selection, DiMSum; sequences stand for … in CUCUCU…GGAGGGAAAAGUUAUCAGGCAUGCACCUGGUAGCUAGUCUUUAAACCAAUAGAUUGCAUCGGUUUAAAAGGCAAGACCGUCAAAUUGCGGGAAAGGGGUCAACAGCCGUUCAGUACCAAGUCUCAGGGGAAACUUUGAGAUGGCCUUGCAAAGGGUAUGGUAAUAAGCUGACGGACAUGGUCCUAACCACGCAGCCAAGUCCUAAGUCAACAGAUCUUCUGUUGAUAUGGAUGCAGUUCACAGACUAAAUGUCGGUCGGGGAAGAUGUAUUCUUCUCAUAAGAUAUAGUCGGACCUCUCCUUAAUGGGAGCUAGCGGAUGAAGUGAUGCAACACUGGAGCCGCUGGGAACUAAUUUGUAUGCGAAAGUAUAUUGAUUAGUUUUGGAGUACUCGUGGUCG
MEASUREMENT_SETUP: 37 °C
Consider the reported self-splicing fitness (ln) of an entry and match it to a band in low-valued = under -2, mid-valued = from -2 up to -1, high-valued = -1 and over

GUGUAGCAAUAUUACGGGCG; mid-valued

Data request: Lab note: which band did `CGGAAGCAAUAUUACGCACC` land in?
Data returned: mid-valued

Data request: Lab note: which band did `CAUUAGCAAUAUUACGUUCU` land in?
Data returned: low-valued

Data request: Lab note: which band did `UCUAAGCAAUAUUACGAGCA` land in?
Data returned: high-valued

Data request: Lab note: which band did `AGUCAGCAAUAUUACGCUCA` land in?
Data returned: high-valued

###

Please go through the items and note down their self-splicing fitness (ln).
ASSAY_OVERVIEW: self-splicing fitness, log relative to wild type (ln ratio); higher = more splicing; Tetrahymena group I intron in knt gene, E. coli kanamycin selection, DiMSum; sequences stand for … in CUCUCU…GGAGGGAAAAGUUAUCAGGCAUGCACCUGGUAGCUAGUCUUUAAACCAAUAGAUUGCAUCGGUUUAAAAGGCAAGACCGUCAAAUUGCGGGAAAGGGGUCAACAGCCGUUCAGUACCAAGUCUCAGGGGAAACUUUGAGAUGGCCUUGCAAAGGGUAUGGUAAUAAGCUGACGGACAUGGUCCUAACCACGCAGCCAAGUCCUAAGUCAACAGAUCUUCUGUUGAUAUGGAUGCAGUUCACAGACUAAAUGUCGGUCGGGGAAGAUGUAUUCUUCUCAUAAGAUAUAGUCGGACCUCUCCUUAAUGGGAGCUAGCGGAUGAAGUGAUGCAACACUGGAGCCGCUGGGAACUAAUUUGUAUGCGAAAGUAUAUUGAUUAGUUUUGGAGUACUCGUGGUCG
MEASUREMENT_SETUP: 37 °C

Past entries and their recorded results:
AUGAAGCAAUAUUACGUGUA; -0.686
UCUCAGCAAUAUUACGCACU; -0.465
AUAGAGCAAUAUUACGUACU; 0.124
CGCGAGCAAUAUUACGACAA; -2.28
AAACAGCAAUAUUACGAAGA; -1.55

Working through the 6 sequences below one at a time, give self-splicing fitness (ln) for each.
1. AUUAAGCAAUAUUACGCCAU
2. GAGGAGCAAUAUUACGACCG
3. GCGCAGCAAUAUUACGUGGA
4. UUUAAGCAAUAUUACGCACC
5. UGUAAGCAAUAUUACGAACG
6. GAUCAGCAAUAUUACGUUAU

Data returned:
1. -1.52
2. -0.621
3. -0.745
4. -0.66
5. 0.542
6. -0.207
